From: patent US4882348A

Target chain: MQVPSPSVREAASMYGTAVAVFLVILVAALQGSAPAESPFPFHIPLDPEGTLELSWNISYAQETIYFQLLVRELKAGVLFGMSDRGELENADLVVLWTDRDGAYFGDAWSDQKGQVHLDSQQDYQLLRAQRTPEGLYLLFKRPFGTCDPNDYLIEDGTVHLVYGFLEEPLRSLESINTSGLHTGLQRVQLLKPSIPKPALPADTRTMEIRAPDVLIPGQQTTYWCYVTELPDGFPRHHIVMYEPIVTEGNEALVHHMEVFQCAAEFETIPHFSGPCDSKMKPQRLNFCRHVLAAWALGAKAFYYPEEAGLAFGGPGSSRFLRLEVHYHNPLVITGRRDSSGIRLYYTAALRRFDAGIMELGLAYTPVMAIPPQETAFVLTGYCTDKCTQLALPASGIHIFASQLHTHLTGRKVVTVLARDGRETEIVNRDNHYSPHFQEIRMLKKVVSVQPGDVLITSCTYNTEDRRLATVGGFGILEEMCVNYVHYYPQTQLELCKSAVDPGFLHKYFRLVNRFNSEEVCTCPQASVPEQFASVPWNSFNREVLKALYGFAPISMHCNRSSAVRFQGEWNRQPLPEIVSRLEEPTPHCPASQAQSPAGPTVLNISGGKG
pIC50: −log10 of the molar value.
readout_type: pIC50

> print(dat)
                                   compound  reported.measurement
1  Cl.Cl.NCCSc1nccn1Cc1cc(F)cc(F)c1 [Dihydrochloride]                  2.74
